- ASSAY SUMMARY: Solubility of LAC-34 in binary mixtures of solvent and water (anti-solvent)
- Type: physicochemical
- CONDITION SUMMARY: propylene glycol with 1% water, organic solvent or mixture; PG, 1% water
PROPERTY NAME: solubility (mg/mL)
Give the value, in units of mg/mL, as a plain number.

Request: Dear colleague, please send me the reported solubility for c1ccc(N(CCC2CCCCN2)C2Cc3ccccc3C2)cc1 (racemic) when you can.
Result: 139

###

- ASSAY SUMMARY: Solubility of LAC-34 in binary mixtures of solvent and water (anti-solvent)
- Type: physicochemical
- CONDITION SUMMARY: propylene glycol, organic solvent or mixture; PG, 0% water
PROPERTY NAME: solubility (mg/mL)
Kindly answer with a numeric value in mg/mL, unit omitted.

Request: Please report solubility for the following compound: c1ccc(N(CCC2CCCCN2)C2Cc3ccccc3C2)cc1 (racemic) [LAC-34]
Result: 149

###

- ASSAY SUMMARY: Screening of excipients for their capability to dissolve LAC-34 free base at room temperature
- Assay type: physicochemical
- CONDITION SUMMARY: 22 °C, organic solvent or mixture, thermodynamic from solid, in propylene glycol
PROPERTY NAME: solubility

Request: Look up and state reported solubility for c1ccc(N(CCC2CCCCN2)C2Cc3ccccc3C2)cc1 (racemic)
Result: > 76 mg/mL

###

- ASSAY SUMMARY: Screening of excipients for their capability to dissolve LAC-34 free base at room temperature
- Assay type: physicochemical
- CONDITION SUMMARY: 22 °C, organic solvent or mixture, thermodynamic from solid, in benzyl alcohol
- Experimental: HPLC analytical methodology was developed, using LAC-34 free base at room temperature (21-23° C.). A liquid's ability to dissolve LAC-34 was screened by adding a known mass of LAC-34 to a known volume/mass of liquid. Saturation solubility was measured by adding an excess of drug substance and allowing the suspension to equilibrate while stirring for 2-3 days. Four solutions of different concentrations of LAC-34 (8.1 mcg/mL to 0.98 mg/mL) plus a blank were typically tested in triplicate. […]
PROPERTY NAME: solubility

Request: Indicate the recorded solubility value for this compound: c1ccc(N(CCC2CCCCN2)C2Cc3ccccc3C2)cc1 (racemic) [LAC-34]
Result: > 100 mg/mL

###

- ASSAY SUMMARY: Saturation solubility of LAC-34 free base in selected solvents (HPLC)
- Assay type: physicochemical
- CONDITION SUMMARY: dimethylsulfoxide (DMSO), 22 °C, organic solvent or mixture, thermodynamic from solid, in dimethylsulfoxide (DMSO)
PROPERTY NAME: solubility

Request: Retrieve solubility measured for c1ccc(N(CCC2CCCCN2)C2Cc3ccccc3C2)cc1 (racemic) [LAC-34] and print it.
Result: 215 mg/mL

###

- TARGET OR TEST SYSTEM: batrachotoxin-sensitive Na+ channel (site 2)
- ASSAY SUMMARY: [3H]batrachotoxin binding to Na+ channels (site 2)
- CONDITION SUMMARY: rat cerebral cortex, 10 nM ligand, 60 min/22° C.; read-out: IC50, inhibition of [3H]batrachotoxin specific binding
PROPERTY NAME: pIC50
Reminder that pIC50 is minus the log10 of a molar concentration.

Request: Consider the compound c1ccc(N(CCC2CCCCN2)C2Cc3ccccc3C2)cc1 (racemic) and give its recorded pIC50.
Result: 6.61
